Target: HLA-A*02:03
Assay: IEDB peptide-MHC binding, purified MHC/competitive/radioactivity; filed as Kd, often an IC50 or EC50 that approximates it; bounds were set here for any values at or beyond the usual limits of such assays
Conditions: source organism: Human immunodeficiency virus type 1 BH10
READOUT NAME: pKd
Answers are plain numbers, as −log10 of the molar value.

Record request: pKd value, item SLLNATDIAV
6.28

* * *

Molecular target: HLA-B*51:01
Assay: IEDB peptide-MHC binding, purified MHC/competitive/fluorescence; bounds were set here for any values at or beyond the usual limits of such assays
Details: source organism: Homo sapiens
READOUT NAME: IC50

Fill in the blank: the reported IC50 of SYMMDDLELI is ____.
≥ 20 µM

* * *

Molecular target: HLA-A*01:01
Assay: IEDB peptide-MHC binding, purified MHC/competitive/radioactivity; filed as Kd, often an IC50 or EC50 that approximates it; bounds were set here for any values at or beyond the usual limits of such assays
Conditions: source organism: Dengue virus 1 Brazil/97-11/1997
I'd be grateful if you could share measured Kd for these entries.

ISKIPGGNMY	≥ 27800 nM

From here, focus on the item given below.
Param readout = Kd; param system = HLA-A*01:01; param query = EKSAAIDGEY ; response: value
2420 nM

* * *

Molecular target: HLA-A*02:01
Assay: IEDB peptide-MHC binding, purified MHC/competitive/fluorescence; bounds were set here for any values at or beyond the usual limits of such assays
Details: source organism: Variola virus
READOUT NAME: IC50

Past entries and their recorded results:
LTPKAQREI	≥ 71.4 µM
KTSQVPKLL	23.5 µM

Could you now look at the following sequence, please?
Value wanted: IC50 (HLA-A*02:01) of entry GGFSTLDKI
≥ 124 µM

* * *

Biological target: HLA-B*35:01
Assay: IEDB peptide-MHC binding, purified MHC/direct/fluorescence; filed as Kd, often an IC50 or EC50 that approximates it; bounds were set here for any values at or beyond the usual limits of such assays
Conditions: source organism: Vibrio parahaemolyticus AQ3810
READOUT NAME: pKd
Numbers only, as −log10 of the molar value.

Hello, I am looking for reported pKd with HLA-B*35:01 for EASTWLDIF . Could you help?
7.80

* * *

Biological target: HLA-A*31:01
Experiment: IEDB peptide-MHC binding, purified MHC/direct/fluorescence; filed as Kd, often an IC50 or EC50 that approximates it; bounds were set here for any values at or beyond the usual limits of such assays
Details: source organism: Mycobacterium tuberculosis
READOUT NAME: Kd

IPAPGLGAL	≥ 20 µM
RGRIGRTYL	≥ 20 µM
AVFDSFVER	0.004 µM

Attention now turns to another entry.
# get_value(readout='Kd', item= VPRDRNGTF )
≥ 20 µM

* * *

Molecular target: HLA-B*27:05
Assay: IEDB peptide-MHC binding, purified MHC/direct/fluorescence; filed as Kd, often an IC50 or EC50 that approximates it; bounds were set here for any values at or beyond the usual limits of such assays
Conditions: source organism: Coxiella burnetii
pKd: −log10 of the molar value.
READOUT NAME: pKd

Please look up its pKd: VMKRNFIDF
≤ 4.70

* * *

Target: HLA-B*51:01
Assay: IEDB peptide-MHC binding, purified MHC/competitive/fluorescence; filed as Kd, often an IC50 or EC50 that approximates it; bounds were set here for any values at or beyond the usual limits of such assays
Conditions: source organism: Listeria monocytogenes 10403S
pKd: −log10 of the molar value.
READOUT NAME: pKd

Param readout = pKd; param system = HLA-B*51:01; param query = LSYEPDNIV ; response: value
≤ 4.70

* * *

Target: HLA-A*24:02
Assay: IEDB peptide-MHC binding, purified MHC/competitive/fluorescence; bounds were set here for any values at or beyond the usual limits of such assays
Conditions: source organism: Homo sapiens
READOUT NAME: pIC50
Answers are plain numbers, as −log10 of the molar value.

Using the record for SYMMDDLELI , report its pIC50.
7.95

* * *

Target: HLA-B*39:01
Assay: IEDB peptide-MHC binding, purified MHC/competitive/fluorescence; filed as Kd, often an IC50 or EC50 that approximates it; bounds were set here for any values at or beyond the usual limits of such assays
Conditions: source organism: Orthomarburgvirus marburgense
pKd: −log10 of the molar value.
READOUT NAME: pKd

Fill in the blank: the reported pKd of GIADFIIFK is ____.
≤ 4.70

* * *

Target: HLA-B*57:01
Assay: IEDB peptide-MHC binding, purified MHC/direct/fluorescence; filed as Kd, often an IC50 or EC50 that approximates it; bounds were set here for any values at or beyond the usual limits of such assays
Conditions: source organism: West Nile virus
pKd: −log10 of the molar value.
READOUT NAME: pKd

For the sequence ILRNPGYAL , what pKd is on record?
≤ 4.70

* * *

Target: HLA-B*58:01
Test: IEDB peptide-MHC binding, purified MHC/direct/fluorescence; filed as Kd, often an IC50 or EC50 that approximates it; bounds were set here for any values at or beyond the usual limits of such assays
Conditions: source organism: Giardia lamblia ATCC 50803
pKd: −log10 of the molar value.
READOUT NAME: pKd

What pKd appears in the records for this sequence with HLA-B*58:01? DSPATLSAY
≤ 4.70

* * *

Target: HLA-B*15:01
Experiment: IEDB peptide-MHC binding, purified MHC/competitive/radioactivity; filed as Kd, often an IC50 or EC50 that approximates it; bounds were set here for any values at or beyond the usual limits of such assays
Conditions: source organism: Dengue virus 4 Philippines/H241/1956
Assignment: determine reported Kd for the given sequences.
Answers are plain numbers, in nM.

LSIPHDLMEF	5.99

We now examine a further sequence.
For HMILVVVTTL , what is its reported Kd?
408

* * *

Target: HLA-A*02:03
Experiment: IEDB peptide-MHC binding, purified MHC/direct/fluorescence; filed as Kd, often an IC50 or EC50 that approximates it; bounds were set here for any values at or beyond the usual limits of such assays
Details: source organism: Vibrio parahaemolyticus AQ3810
READOUT NAME: Kd

Value wanted: Kd (HLA-A*02:03) of entry EASTWLDIF
≥ 20 µM

* * *

Biological target: HLA-A*31:01
Test: IEDB peptide-MHC binding, purified MHC/competitive/radioactivity; filed as Kd, often an IC50 or EC50 that approximates it; bounds were set here for any values at or beyond the usual limits of such assays
Settings: source organism: Mammarenavirus juninense
READOUT NAME: Kd (nM)
Answers are plain numbers, in nM.

KCFGNTAVAK	181

Query the reported Kd for HLA-A*31:01; item: VCFHEFLSSK
1530

* * *

Target: HLA-B*83:01
Assay: IEDB peptide-MHC binding, purified MHC/competitive/fluorescence; filed as Kd, often an IC50 or EC50 that approximates it; bounds were set here for any values at or beyond the usual limits of such assays
Settings: source organism: Methylibium petroleiphilum PM1
pKd: −log10 of the molar value.
READOUT NAME: pKd

What value of pKd has been reported for the following sequence? FQMGGIGPM
≤ 5.30

* * *

Target: HLA-B*15:01
Assay: IEDB peptide-MHC binding, purified MHC/competitive/fluorescence; filed as Kd, often an IC50 or EC50 that approximates it; bounds were set here for any values at or beyond the usual limits of such assays
Settings: source organism: Paracoccus denitrificans PD1222
READOUT NAME: pKd
One number for each entry, as −log10 of the molar value.

What value of pKd has been recorded for this entry: ALAAAGAAY
6.91

* * *

Biological target: HLA-B*18:01
Assay: IEDB peptide-MHC binding, purified MHC/direct/fluorescence; filed as Kd, often an IC50 or EC50 that approximates it; bounds were set here for any values at or beyond the usual limits of such assays
Details: source organism: Entamoeba histolytica HM-1:IMSS
READOUT NAME: pKd
Give bare numbers, as −log10 of the molar value.

Field request: pKd | item: REVEEIIKY
7.60

* * *

Target: HLA-A*24:02
Assay: IEDB peptide-MHC binding, purified MHC/competitive/radioactivity; filed as Kd, often an IC50 or EC50 that approximates it; bounds were set here for any values at or beyond the usual limits of such assays
Settings: source organism: Mammarenavirus brazilense
Task for the reader: assign each of the following sequences its reported Kd.
Give bare numbers, in nM.

LWEKLCYLI	2880

As a next step, examine the sequence that follows.
State the recorded Kd for this entry: PYLKATKQI
564

* * *

Biological target: HLA-A*69:01
Assay: IEDB peptide-MHC binding, purified MHC/competitive/fluorescence; filed as Kd, often an IC50 or EC50 that approximates it; bounds were set here for any values at or beyond the usual limits of such assays
Details: source organism: Human immunodeficiency virus type 1 (ELI ISOLATE)
pKd: −log10 of the molar value.
READOUT NAME: pKd

Given the entry FLGRIWPS , report its measured pKd.
≤ 5.30
